Ref: ChEMBL document CHEMBL4342405

assay: Half life in dog; format: ADME, Canis lupus familiaris; conditions: in vivo
Measured Attribute: half-life

Prompt: Which half-life value is on record for CN(C)CC[C@H](CSc1ccccc1)Nc1ccc(S(=O)(=O)NC(=O)c2ccc(N3CCN(Cc4ccccc4-c4ccc(Cl)cc4)CC3)cc2)cc1[N+](=O)[O-] ?
Completion: 240 to 384 min

###

target: Bcl-2-like protein 1 (Homo sapiens)
Measured Attribute: pKi
The quantity pKi is defined as the negative base-10 logarithm of the molar concentration.

Prompt: Recorded pKi of O=C(O)c1ccc(-c2ccc(F)cc2)cc1/C=C/c1cccc(-c2ccccc2)c1 , please.
Completion: 5.85

###

target: Bcl-2-like protein 1 (Homo sapiens, UniProt Q07817)
Sequence (Q07817 whole entry): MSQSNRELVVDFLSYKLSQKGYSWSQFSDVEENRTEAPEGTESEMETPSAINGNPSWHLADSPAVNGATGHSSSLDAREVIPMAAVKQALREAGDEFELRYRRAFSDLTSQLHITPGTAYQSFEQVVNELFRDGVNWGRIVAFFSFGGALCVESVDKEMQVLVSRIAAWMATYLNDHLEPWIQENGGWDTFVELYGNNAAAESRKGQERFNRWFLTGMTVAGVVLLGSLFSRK
Measured Attribute: pKd
Scale for pKd: -log10 of concentration given in mol/L; no unit attached.

Prompt: Entry Oc1ccc(-c2ccccc2)cc1 has what pKd?
Completion: 2.22

###

assay: Half life in mouse; assay type: ADME, organism-based; details: in vivo
Measured Attribute: half-life

Prompt: // returns reported half-life for input CN(C)CC[C@H](CSc1ccccc1)Nc1ccc(S(=O)(=O)NC(=O)c2ccc(N3CCN(Cc4ccccc4-c4ccc(Cl)cc4)CC3)cc2)cc1[N+](=O)[O-] [ABT 737]
Completion: 4 to 6.4 h

###

experiment: Oral bioavailability in dog; format: ADME, organism-based, Canis lupus familiaris; conditions: in vivo
Measured Attribute: bioavailability (%)
Give a bare numeral; the unit % is implied.

Prompt: // lookup bioavailability for CN(C)CC[C@H](CSc1ccccc1)Nc1ccc(S(=O)(=O)NC(=O)c2ccc(N3CCN(Cc4ccccc4-c4ccc(Cl)cc4)CC3)cc2)cc1[N+](=O)[O-] [ABT 737]
Completion: 20

###

assay: Oral bioavailability in monkey; format: ADME, organism-based, Macaca mulatta; conditions: rhesus monkey, in vivo
Measured Attribute: bioavailability (%)
Give just the number in %; leave the unit off.

Prompt: # get_value(readout='bioavailability', item= CN(C)CC[C@H](CSc1ccccc1)Nc1ccc(S(=O)(=O)NC(=O)c2ccc(N3CCN(Cc4ccccc4-c4ccc(Cl)cc4)CC3)cc2)cc1[N+](=O)[O-] )
Completion: 20
